// provenance: patent US20040014191A1

Experiment: Flavin reductase assay with FMN and FAD
Format: biochemical
Conditions: Table 6
testReadout: Flavin reductase

molecule="H. influenzae NfnB: nitroreductase from H. influenzae, SEQ ID NO: 17 (protein, listed as Haemophilus influenzae) MTQLTREQVLELFHQRSSTRYYDPTKKISDEDFECILECGRLSPSSVGSEPWKFLVIQNKTLREKMKPFSWGMINQLDNCSHLVVILAKKNARYDSPFFVDVMARKGLNAEQQQAALTKYKALQEEDMKLLENDRTLFDWCSKQTYIALANMLTGASALGIDSCPIEGFHYDKMNECLAEEGLFDPQEYAVSVAATFGYRSRDIAKKSRKGLDEVVKWVG" assayresult=Weak
molecule="YdgI (Bacillus subtilis subsp. subtilis str. 168) (protein, made in house; host or cells: E. coli (pMTL1015; HMS174)) MIKTNDFMEIMKGRRSIRNYDPAVKISKEEMTEILEEATTAPSSVNAQPWRFLVIDSPEGKEKLAPLASFNQTQVTTSSAVIAVFADMNNADYLEEIYSKAVELGYMPQEVKDRQIAALTAHFEKLPAQVNRETILIDGGLVSMQLMLTARAHGYDTNPIGGYDKENIAETFGLDKERYVPVMLLSIGKAADEGYASYRLPIDTIAEWK" assayresult=Yes
